Documented MIC across a set of molecules
system: Haemophilus influenzae; test: Antibacterial activity against Haemophilus influenzae isolate 283 by agar dilution method; assay type: functional
readout name: MIC (µg/mL)

# molecule, relation sign, value
data = [
    ("CCC(C)C(=O)N1CCN(c2ccc(N3C[C@H](Cn4cc(C)nn4)OC3=O)cc2F)CC1 (some centres undefined)", ">", 64),
    ("Cc1cn(C[C@H]2CN(c3ccc(N4CCN(C(=O)/C=C/c5ccccc5)CC4)c(F)c3)C(=O)O2)nn1", ">", 64),
    ("Cc1cn(C[C@H]2CN(c3ccc(N4CCN(C(=O)CC(C)C)CC4)c(F)c3)C(=O)O2)nn1", ">", 64),
    ("Cc1cn(C[C@H]2CN(c3ccc(N4CCN(C(=O)C5CCC5)CC4)c(F)c3)C(=O)O2)nn1", "=", 32),
    ("CCC(=O)N1CCN(c2ccc(N3C[C@H](Cn4cc(C)nn4)OC3=O)cc2F)CC1", "=", 32),
    ("CCCCC(=O)N1CCN(c2ccc(N3C[C@H](Cn4cc(C)nn4)OC3=O)cc2F)CC1", "=", 64),
    ("Cc1cn(C[C@H]2CN(c3ccc(N4CCN(C(=O)C(C)C)CC4)c(F)c3)C(=O)O2)nn1", ">", 64),
    ("Cc1cn(C[C@H]2CN(c3ccc(N4CCN(C(=O)C5CCCCC5)CC4)c(F)c3)C(=O)O2)nn1", "=", 32),
    ("CC(=O)N1CCN(c2ccc(N3C[C@H](Cn4cc(C)nn4)OC3=O)cc2F)CC1", "=", 64),
]

###

test system: Escherichia coli; test: Antibacterial activity against Escherichia coli ATCC 25922 by agar dilution method; format: functional

# compound, assayed target, MIC
measured = [
    ("CCSC(=O)N1CCN(c2ccc(N3C[C@H](Cn4cc(C)nn4)OC3=O)cc2F)CC1", "Escherichia coli", "> 64 µg/mL"),
    ("CCOC(=O)N1CCN(c2ccc(N3C[C@H](Cn4cc(C)nn4)OC3=O)cc2F)CC1", "Escherichia coli", "> 64 µg/mL"),
    ("Cc1cn(C[C@H]2CN(c3ccc(N4CCN(C(=O)CC5CC6CCC5C6)CC4)c(F)c3)C(=O)O2)nn1 (some centres undefined)", "Escherichia coli", "> 64 µg/mL"),
    ("Cc1cn(C[C@H]2CN(c3ccc(N4CCN(C(=O)Cc5ccccc5)CC4)c(F)c3)C(=O)O2)nn1", "Escherichia coli", "> 64 µg/mL"),
]

The reported measurements were obtained from ChEMBL document CHEMBL1153012.
